Hey, just so you know, these numbers are from patent US20110015162A1.

# target: mineralocorticoid receptor (Homo sapiens, UniProt P08235)
# Sequence (P08235 whole entry): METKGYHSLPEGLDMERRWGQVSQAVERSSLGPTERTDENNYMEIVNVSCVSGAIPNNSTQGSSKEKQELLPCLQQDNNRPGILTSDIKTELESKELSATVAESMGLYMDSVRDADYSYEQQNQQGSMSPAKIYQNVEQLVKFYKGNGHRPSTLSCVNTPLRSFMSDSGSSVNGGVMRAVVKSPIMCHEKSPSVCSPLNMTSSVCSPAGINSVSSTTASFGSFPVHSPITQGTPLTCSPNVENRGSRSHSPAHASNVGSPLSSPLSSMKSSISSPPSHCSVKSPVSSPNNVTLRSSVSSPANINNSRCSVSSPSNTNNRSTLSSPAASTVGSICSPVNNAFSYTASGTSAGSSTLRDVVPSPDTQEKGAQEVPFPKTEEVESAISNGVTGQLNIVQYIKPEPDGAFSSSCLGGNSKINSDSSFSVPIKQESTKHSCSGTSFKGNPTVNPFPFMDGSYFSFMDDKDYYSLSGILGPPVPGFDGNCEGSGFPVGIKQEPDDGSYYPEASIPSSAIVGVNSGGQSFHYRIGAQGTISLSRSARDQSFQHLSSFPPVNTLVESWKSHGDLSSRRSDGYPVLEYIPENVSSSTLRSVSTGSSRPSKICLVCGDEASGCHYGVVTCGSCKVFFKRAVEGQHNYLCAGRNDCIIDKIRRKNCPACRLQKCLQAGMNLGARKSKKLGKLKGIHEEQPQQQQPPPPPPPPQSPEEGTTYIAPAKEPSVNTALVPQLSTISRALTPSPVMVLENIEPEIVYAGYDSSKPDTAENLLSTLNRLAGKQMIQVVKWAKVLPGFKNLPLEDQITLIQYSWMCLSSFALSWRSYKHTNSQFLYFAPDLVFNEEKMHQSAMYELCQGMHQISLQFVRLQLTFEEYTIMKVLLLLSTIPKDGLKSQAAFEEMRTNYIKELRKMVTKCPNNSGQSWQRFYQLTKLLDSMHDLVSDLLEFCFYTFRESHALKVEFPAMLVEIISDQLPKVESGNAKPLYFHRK
# testMethodNotes: Antimineralocorticoid action by transactivation test (MDCK reporter cells)
# Assay type: cell-based
# Set-up: expressed in transfected cells; host or cells: MDCK cells
measurementKind: IC50 (µM)
Answers are plain numbers, in µM.

CC[C@]12CC[C@H]3[C@@H]([C@@H]4C[C@@H]4C4=CC(=O)CC[C@@H]43)[C@@H]1[C@@H]1C[C@@H]1[C@@]21C=CC(=O)O1    0.23
C[C@]12CC[C@H]3[C@@H](CCC4=CC(=O)CC[C@@H]43)[C@@H]1[C@H]1C[C@H]1[C@@]21C=CC(=O)O1    0.1
C=C[C@@H]1CC2=CC(=O)CC[C@@H]2[C@H]2CC[C@@]3(C)[C@@H]([C@H]4C[C@H]4[C@@]34C=CC(=O)O4)[C@@H]21 [Example 16A]    0.095
CC[C@@H]1CC2=CC(=O)CC[C@@H]2[C@H]2CC[C@@]3(C)[C@@H]([C@H]4C[C@H]4[C@@]34C=CC(=O)O4)[C@H]12 [Example 15A]    0.012
CC[C@@H]1CC2=CC(=O)CC[C@@H]2[C@H]2CC[C@@]3(C)[C@@H]([C@@H]4C[C@@H]4[C@@]34C=CC(=O)O4)[C@H]12 [Example 24A]    0.16
C[C@]12CC[C@H]3[C@@H](CCC4=C(Cl)C(=O)CC[C@@H]43)[C@@H]1[C@H]1C[C@H]1[C@@]21C=CC(=O)O1    0.83

Provide IC50 for all items below, preserving their order.
1. CC[C@]12CC[C@H]3[C@H]([C@@H]1[C@@H]1C[C@@H]1[C@@]21C=CC(=O)O1)[C@H](C)CC1=CC(=O)CC[C@@H]13
2. C[C@]12CC[C@H]3[C@@H](CC4(CC4)C4=CC(=O)CC[C@@H]43)[C@@H]1[C@@H]1C[C@@H]1[C@@]21C=CC(=O)O1
3. C[C@@H]1CC2=CC(=O)CC[C@@H]2[C@H]2CC[C@@]3(C)[C@@H]([C@H]4C[C@H]4[C@@]34C=CC(=O)O4)[C@@H]21 [Example 14A]
4. C[C@]12CC[C@H]3[C@@H](CCC4=CC(=O)CC[C@@H]43)[C@@H]1[C@@H]1C[C@@H]1[C@@]21C=CC(=O)O1
5. C=C[C@@H]1CC2=CC(=O)CC[C@@H]2[C@H]2CC[C@@]3(C)[C@@H]([C@@H]4C[C@@H]4[C@@]34C=CC(=O)O4)[C@@H]21 [Example 25A]
6. C[C@@H]1CC2=CC(=O)CC[C@@H]2[C@H]2CC[C@@]3(C)[C@@H]([C@@H]4C[C@@H]4[C@@]34C=CC(=O)O4)[C@@H]21 [Example 23A]
7. CC[C@]12CC[C@H]3[C@@H]([C@H]4C[C@H]4C4=CC(=O)CC[C@@H]43)[C@@H]1[C@@H]1C[C@@H]1[C@@]21C=CC(=O)O1
8. CC[C@]12CC[C@H]3[C@@H](C=CC4=CC(=O)CC[C@@H]43)[C@@H]1[C@@H]1C[C@@H]1[C@@]21C=CC(=O)O1

Response given:
[0.003, 0.049, 0.003, 0.062, 0.91, 0.29, 0.01, 0.022]

Provide IC50 values for the following items, in order.
1. CC[C@]12CC[C@H]3[C@H]([C@@H]1[C@@H]1C[C@@H]1[C@@]21C=CC(=O)O1)[C@H](C1CC1)CC1=CC(=O)CC[C@@H]13
2. CC[C@]12CC[C@H]3[C@@H](CCC4=CC(=O)CC[C@@H]43)[C@@H]1[C@@H]1C[C@@H]1[C@@]21C=CC(=O)O1

Response given:
1: 0.077; 2: 0.003

# return IC50 for each item in the list
1. C[C@]12CC[C@H]3[C@H]([C@@H]1[C@H]1C[C@H]1[C@@]21C=CC(=O)O1)[C@H](C1CC1)CC1=CC(=O)CC[C@@H]13 [Example 17A]
2. C[C@]12CC[C@H]3[C@@H](CCC4=C(Cl)C(=O)CC[C@@H]43)[C@@H]1[C@@H]1C[C@@H]1[C@@]21C=CC(=O)O1
3. C=C[C@@H]1CC2=CC(=O)CC[C@@H]2[C@H]2CC[C@@]3(CC)[C@@H]([C@@H]4C[C@@H]4[C@@]34C=CC(=O)O4)[C@@H]21

Response given:
1. 0.089
2. 1
3. 0.009
